Catalogue of molecules with associated growth inhibition
# procedure details: NCI Yeast Anticancer Drug Screen. Data for the mlh1 rad18 strain (AID 175)
# test parameters: S. cerevisiae mlh1 rad18 strain growth inhibition; at 50.0 µM; active compounds read high
This is part of a sample that, as a whole, favours compounds with a hit. Of some 79,000 tested, about 15% had one in any assay.
Field format: number, assumed %, no unit text.

molecule=Cc1ccccc1N=Cc1ccccc1[N+](=O)[O-] measured_attribute="growth inhibition" readout_unit=% recorded_measurement=8.1

# next molecule below
Using the record for OCC(CBr)(CBr)CBr , report its growth inhibition.
-3.85

----------
Catalogue of compounds with associated growth inhibition
# procedure details: NCI Yeast Anticancer Drug Screen. Data for the bub3 strain (AID 167)
# test parameters: S. cerevisiae bub3 mutant strain, at 50.0 µM, active compounds read high
About 79,000 compounds went through this panel and 15% of them were active in at least one assay; those are over-represented in the sample as a whole.
Field format: number, assumed %, no unit text.

// worked examples, growth inhibition included
compound=CCc1nc(N)nc(N)c1-c1ccc(Cl)c(S(=O)(=O)O)c1 readout_unit=% recorded_measurement=-15.1
compound=Cn1c(COc2ccc(/C=N\NC(=O)c3ccc(C(=O)N/N=C/c4ccc(OCc5c[n+]6ccccc6n5C)cc4)cc3)cc2)c[n+]2ccccc12 readout_unit=% recorded_measurement=1.6
compound=Cn1nc(-c2ccccc2)c(C(=O)/C=C/c2ccc(F)cc2)c(N2CCOCC2)c1=O readout_unit=% recorded_measurement=-21.6

# next compound below
Using the record for CCOC(=O)Oc1ccc(C(=O)NCCC(C)C)cc1OCC , report its growth inhibition.
25.8

src = PubChem BioAssay (NCI)
